# Experimental target: Human HER3, endogenous, on human cancer cell lines (SK-Br-3, MCF7, BT-474) (human, UniProt P21860 20-1342)
# Sequence (P21860 20-1342): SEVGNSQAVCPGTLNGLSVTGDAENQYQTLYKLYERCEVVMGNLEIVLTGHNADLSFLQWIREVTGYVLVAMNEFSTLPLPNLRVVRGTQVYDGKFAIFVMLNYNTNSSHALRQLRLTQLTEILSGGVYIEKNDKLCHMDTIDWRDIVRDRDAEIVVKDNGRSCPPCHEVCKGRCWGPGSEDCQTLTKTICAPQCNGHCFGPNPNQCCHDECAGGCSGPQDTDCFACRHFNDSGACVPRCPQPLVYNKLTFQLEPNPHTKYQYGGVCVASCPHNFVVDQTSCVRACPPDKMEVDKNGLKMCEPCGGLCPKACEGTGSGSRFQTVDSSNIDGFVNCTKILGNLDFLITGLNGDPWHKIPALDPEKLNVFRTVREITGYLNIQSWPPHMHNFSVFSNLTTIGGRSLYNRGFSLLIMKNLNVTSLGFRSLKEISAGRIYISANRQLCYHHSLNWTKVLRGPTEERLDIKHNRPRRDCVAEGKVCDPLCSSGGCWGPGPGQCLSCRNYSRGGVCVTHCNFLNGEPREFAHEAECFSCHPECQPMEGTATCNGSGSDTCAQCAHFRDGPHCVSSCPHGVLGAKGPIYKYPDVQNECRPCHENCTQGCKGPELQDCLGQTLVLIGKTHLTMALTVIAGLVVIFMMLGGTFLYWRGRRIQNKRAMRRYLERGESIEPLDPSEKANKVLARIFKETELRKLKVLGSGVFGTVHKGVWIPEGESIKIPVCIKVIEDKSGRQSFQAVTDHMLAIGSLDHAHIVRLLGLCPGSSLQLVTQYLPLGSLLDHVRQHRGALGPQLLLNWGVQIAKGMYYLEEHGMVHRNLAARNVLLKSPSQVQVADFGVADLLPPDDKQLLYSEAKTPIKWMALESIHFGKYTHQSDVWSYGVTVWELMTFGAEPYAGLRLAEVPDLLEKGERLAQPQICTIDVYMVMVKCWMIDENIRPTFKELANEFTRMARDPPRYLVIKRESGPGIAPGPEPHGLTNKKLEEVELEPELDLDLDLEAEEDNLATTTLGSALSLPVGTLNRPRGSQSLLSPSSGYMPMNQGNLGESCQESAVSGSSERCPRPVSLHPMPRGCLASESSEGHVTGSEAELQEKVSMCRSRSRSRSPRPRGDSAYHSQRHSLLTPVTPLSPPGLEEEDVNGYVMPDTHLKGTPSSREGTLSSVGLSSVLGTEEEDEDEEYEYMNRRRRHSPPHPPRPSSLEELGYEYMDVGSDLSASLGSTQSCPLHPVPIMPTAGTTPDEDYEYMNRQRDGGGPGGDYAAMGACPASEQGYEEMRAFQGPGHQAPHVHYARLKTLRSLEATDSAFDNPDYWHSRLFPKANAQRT
# Assay protocol: cell-based or functional assay
Measured parameter: MCF7 pHER3 % inhibition (%)
Provide only the numeric value, understood in %.

Tell us which MCF7 pHER3 % inhibition value is on record for MOR12924 (antibody, human IgG1, kappa, V domains shown) VH: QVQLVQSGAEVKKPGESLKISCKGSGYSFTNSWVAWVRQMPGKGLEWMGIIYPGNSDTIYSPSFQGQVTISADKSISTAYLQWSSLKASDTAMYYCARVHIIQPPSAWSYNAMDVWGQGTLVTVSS VL: DIQMTQSPSSLSASVGDRVTITCRASQSISTYLNWYQQKPGKAPKLLIFGASNLQSGVPSRFSGSGSGTDFTLTISSLQPEDFATYYCQQSVWEPATFGQGTKVEIKR 80

Source listed as patent US20130273029A1.
